target: von Willebrand factor full length (Homo sapiens, UniProt P04275 SEQ:764-2813); test: filter; DPBS, 0.1 mg/mL BSA, RT; conditions: tags: Calbiochem 681300; label: 5'-32P
pKd: −log10 of the molar value.
measuredEndpoint: pKd

| binder | measuredEndpoint | recordedValue |
| --- | --- | --- |
| AMX237.G6 (ssDNA) DNA: CTACCTACGATCTGACTAGCGTGCAGTGCCTATTCCAGGCCGTGCGGTGCCTCCGTCACGCTTACTCTCATGTAGTTCC | pKd | 9.70 |
| AMX238.H5 (ssDNA) DNA: CTACCTACGATCTGACTAGCGTGCAGTGCCTATTCTAGGCCGTGCGGTGCCTCCGTCACGCTTACTCTCATGTAGTTCC | pKd | 9.48 |
| AMX238.E9 (ssDNA) DNA: CTACCTACGATCTGACTAGCGTGCAGTGCCCATCTTAGGCCGTGCGGTGCCTCCGTCACGCTTACTCTCATGTAGTTCC | pKd | 9.41 |
